Max. Activity (fold over background) reference
Target: Vg9/Vd1 TCR on SKW3 cells (UniProt Q99603)
Sequence (Q99603 21-122): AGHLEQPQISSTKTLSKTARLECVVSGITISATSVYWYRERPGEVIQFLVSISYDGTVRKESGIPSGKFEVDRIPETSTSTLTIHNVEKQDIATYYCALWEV
Assay: flow cytometry DRC binding 37 C, SKW3 cells expressing Vg9/Vd1

BINDER	Max. Activity (fold over background)
VG9B136 (antibody, human IgG1, kappa, V domains shown) VH: QVQLQQSGPGLVKPSQTLSLTCAISGDSVSSNRAAWNWIRQSPSKGLEWLGRTYYRSKWYNEYAASVKSRMSINPDTSKNQFSLQLNSVTPEDTALYYCARDLWELREACDIWGQGTMVTVSS VL: DIVMTQSPSFLSTFVGDRVTITCRASQGISSYLAWYQQKPGKVPKLLIYVASTLQSGVPSRFSGSGSGTEFTLTISSLQPEDFATYYCQQLNSYPFTFGPGTKVDIKR	288
VG9B379 (antibody, human IgG1, lambda, V domains shown) VH: EVQLVQSGPEVKKPGASVKVSCKASGYTFTGDYIHWVRQVPGQGLEWMGWINPNSGGTNYAQKFQGRVTMTRDTSISTAFMELSRLRSDDTAVYYCAREGGVAPAAPDAFDIWGQGTMVTVSS VL: SSELTQDPAVSVALGQTVRITCQGDSLRSYYARWYQQKPGQAPVVVIYGKNNRPSGIPDRFSGSSSGNTASLTITGAQAEDEADYYCNSRDSSGNHRVFGGGTKLTVLG	295
VG9B77 (antibody, human IgG1, kappa, V domains shown) VH: EVQLVESGAEVMKPGSSVKVSCKASGGTFSSYAISWVRQAPEQGLEWMGGIIPFFGTADYAQKFQGRVTITADKSTNTAYMELTSLRSEDTAVYYCATATVTTDYYYGMDVWGQGTMVTVSS VL: EIVMTQSPLFSPVTLGQPASISCRSSQSLVHSDGNTYLSWLQQRPGQPPRLLIYEISNRFTGVPDRFSGSGAGTDFTLKISRVEAEDVGVYYCMQARQFPLTFGGGTKVEIKR	137
VG9B189 (antibody, human IgG1, lambda, V domains shown) VH: EVQLVQSGGGLVKPGASLKLSCAASGFTFSNHGMSWVRQTSDKRLEWVASITRGGDTTYYPDNVKGRFTISRENAKNTLYLQMSSLKSDDTALYYCTRGPLTVGYAMDYWGQGTTVTVSS VL: QSVVTQPPSASGSPGQSVTISCTGTSSDVGGYNYVSWYQQHPGKAPKLMIYEVSKRPSGVPDRFSGSKSGNTASLTVSGLQAEDEADYYCNSYAGSNNFEVFGGGTKVTVLG	1.46
VG9B387 (antibody, human IgG1, lambda, V domains shown) VH: EVQLVESGAEVKKPGASVKVSCKASGFTFTGYYLQWVRQAPGQGLEWMGWINPNSGYTDYAQRFQDRVTMTRDTSINTAYMELSRLRSDDTAVYYCARLDDAFDVWGQGTMVTVSS VL: SYELTQDPAVSVALGQTVRITCQGDSLRNYYAIWYQQKPGQAPVLVIFGKNNRPSGIPDRFSGSSSGTTASLTITGTQAEDEADYYCNSRDSSGNHWVFGGGTKLTVLG	435
VG9B47 (antibody, human IgG1, kappa, V domains shown) VH: QVQLVQSGAEVKKPGSSVKVSCKASGGSFSNYAISWMRQAPGQGLEWMGGIIPFFGTPDYAQKFQGRVTITADKSTSTAYMELSSLRSEDTAVYYCSTGGGYGDYDYYYGINVWGQGTMVTVSS VL: DIVMTQSPLSSPVDLGQPASISCRSSQSLVHSDGNTYLSWLQQRPGQPPRLLIYKISNRFSGVPDRFSGSGAGTDFTLKISRVEAEDVGVYYCMQAKEFPLTLGGGTKVDIKR	308
VG9B96 (antibody, human IgG1, kappa, V domains shown) VH: EVQLVQSGAEVKKPGSSVKVSCKASGGTFSNYAISWVRLAPGQGLEWMGGIIPIFSAGTYAQRFQGRVTITADKSTSTAYMELNSLRSEDTAVYYCSSNSGTYYDYYYGMDVWGQGTMVTVSS VL: DIVMTQSPLSSHVTLGQPASISCRSSQSLVHSDGNTYLSWLQQRPGQPPRLLIYKIFNRLSGVPDRFSGSGAGTDFTLKISRVEAEDVGVYYCMQAKQFPLTFGGGTKVEIKR	245
VG9B112 (antibody, human IgG1, kappa, V domains shown) VH: QVQLQQSGPGLVKPSQTLSLTCAISGDSVSSNSAAWNWIRQSPSRGLEWLGGTYYRSKWFNNYAVSVKSRITINPDTSTNQFSLQLNSVTPADTAVYYCARGEWGLRDAFDIWGQGTMVTVSS VL: DIQMTQSPSFLSASVGDRVIITCRASQGIHSYLAWYQQKPGKVPKLLIYVASTLQSGVPSRFSGSGSGTEFTLTISSLQPEDFATYYCQQLNSYPWTFGQGTKLEIKR	328
VG9B392 (antibody, human IgG1, lambda, V domains shown) VH: QVQLVQSGAEVKRPGASAKVSCKTSGYTFTGYYIHWVRQAPGQGLEWMGWINPNSGYTNSAQKFQGRVSMTRDTSISTVYMELSRLRSDDTAVYYCAREDDAFDIWGQGTLVTVSS VL: SSELTQDPAVSVALGQTVRITCQGDSLRSYYARWYQQKPGQAPVLVIYGKNNRPSGIPDRFSGSSSGDTASLTITGALAEDEADYYCNSRDNSGNHVVFGGGTKVTVLG	295
VG9B41 (antibody, human IgG1, kappa, V domains shown) VH: QVQLQESGPQLVRPGASVKISCKASGYSFTTYWMHWVKQRPGQGLEWIGLIDPSDSETRLNQKFKDKATLTVDKSSSTAYMRLSSPTSEDSAVYYCASNRWLLGWGQGTMVTVSS VL: EIVLTQTPLSSPVTLGQPASISCRSSQSLVHSDGNTYLSWLHQRPGQPPRLLIYKISNRFSGVPDRFSGSGAGTDFTLKISRVETEDVGVYYCVQTREFPLTFGGGTKVEIKR	2.18

As a next step, examine the binder that follows.
Recorded Max. Activity (fold over background) of VG9B144 (antibody, human IgG1, lambda, V domains shown) VH: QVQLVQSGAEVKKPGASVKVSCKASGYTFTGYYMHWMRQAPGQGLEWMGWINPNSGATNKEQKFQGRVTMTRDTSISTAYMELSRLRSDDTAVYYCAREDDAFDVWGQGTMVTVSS VL: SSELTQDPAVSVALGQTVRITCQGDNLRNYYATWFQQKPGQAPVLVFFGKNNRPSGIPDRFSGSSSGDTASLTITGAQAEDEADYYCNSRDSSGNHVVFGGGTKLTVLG , please.
205
